assay: Gelation test in solvents at room temperature; assay type: physicochemical; details: EtOH:H2O (1:2); Table 3
propertyMeasured: preliminary MGC (stable gel) (mg/mL)

>>> print(df.to_string())
                                   compound  observedresult
0  CCOC(=O)CNC(=O)CN(C(=O)c1ccc(Br)cc1)C1C(OCC)OC2COC(c3ccccc3)OC2C1O (stereo not shown)            20.0
1  COc1ccc(C(C(=O)NC2CCCCC2)N(Cc2ccccc2)C(C)=O)cc1 (racemic)            15.0

a = COc1ccc(CN(CC(=O)NCS(=O)(=O)c2ccc(C)cc2)C(=O)c2ccc(Br)cc2)cc1
b = CCOC(=O)CNC(=O)CN(Cc1ccc(OC)cc1)C(=O)CCC(=O)NC1C(OC)OC2COC(c3ccccc3)OC2C1O (stereo not shown)
API: POST /compare with a and b ; response names the item with higher preliminary MGC (stable gel). Select an item and report its label.
b
(b: 20.0 mg/mL, a: 10.0 mg/mL)

# credit: patent US20140296354A1
